Where these numbers come from: ChEMBL document CHEMBL2218924

assayed_system: Mitogen-activated protein kinase kinase kinase 9 (Homo sapiens) (UniProt P80192)
Sequence (P80192 whole entry, looked up): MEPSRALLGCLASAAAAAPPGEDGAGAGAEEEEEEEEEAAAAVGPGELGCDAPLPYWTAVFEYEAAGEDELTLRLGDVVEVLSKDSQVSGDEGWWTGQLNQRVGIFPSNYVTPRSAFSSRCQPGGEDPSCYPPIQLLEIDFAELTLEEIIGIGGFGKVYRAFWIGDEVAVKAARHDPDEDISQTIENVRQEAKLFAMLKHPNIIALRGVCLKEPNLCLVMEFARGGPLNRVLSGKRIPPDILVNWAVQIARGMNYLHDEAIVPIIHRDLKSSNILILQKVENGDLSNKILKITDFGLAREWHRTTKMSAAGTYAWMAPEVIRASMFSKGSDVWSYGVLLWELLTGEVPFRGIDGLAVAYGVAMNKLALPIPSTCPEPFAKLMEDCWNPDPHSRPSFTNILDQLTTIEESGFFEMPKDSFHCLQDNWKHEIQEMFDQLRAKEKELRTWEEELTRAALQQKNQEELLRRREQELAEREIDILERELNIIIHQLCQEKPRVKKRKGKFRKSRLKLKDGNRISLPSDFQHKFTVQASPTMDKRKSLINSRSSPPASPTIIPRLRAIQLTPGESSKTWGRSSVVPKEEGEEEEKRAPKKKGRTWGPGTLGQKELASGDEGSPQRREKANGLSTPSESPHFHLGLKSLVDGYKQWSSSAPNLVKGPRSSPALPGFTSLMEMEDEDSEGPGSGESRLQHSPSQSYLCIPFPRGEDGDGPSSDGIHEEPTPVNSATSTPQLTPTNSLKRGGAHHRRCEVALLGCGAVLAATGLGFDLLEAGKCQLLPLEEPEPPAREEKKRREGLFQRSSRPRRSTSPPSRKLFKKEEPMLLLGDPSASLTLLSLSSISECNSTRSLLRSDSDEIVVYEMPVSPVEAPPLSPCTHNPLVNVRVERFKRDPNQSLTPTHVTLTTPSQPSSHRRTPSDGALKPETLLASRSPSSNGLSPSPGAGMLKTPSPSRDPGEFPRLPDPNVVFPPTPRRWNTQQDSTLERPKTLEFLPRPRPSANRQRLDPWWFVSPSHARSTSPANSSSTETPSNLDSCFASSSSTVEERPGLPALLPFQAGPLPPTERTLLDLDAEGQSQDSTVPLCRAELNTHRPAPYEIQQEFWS
measurement_context: at 10 µM
Please note: residual activity exactly at 60% is f. Only values below 60% get t.

{"molecule_smiles": "NC(=O)Nc1sc(-c2ccc(F)cc2)cc1C(N)=O", "class_label": "t"}
{"molecule_smiles": "Nc1ncnc2c1cnn2-c1ccccc1", "class_label": "t"}
{"molecule_smiles": "CCCCc1c(-c2ccc(OC)cc2)[nH]c2nccnc12", "class_label": "t"}
{"molecule_smiles": "Cn1c2ccccc2c2c3c(c4c5ccccc5n(CCC#N)c4c21)CNC3=O", "class_label": "t"}
{"molecule_smiles": "O=c1cc(N2CCOCC2)oc2c1ccc1ccccc12", "class_label": "f"}
{"molecule_smiles": "COc1ccc2c(c1)c(C1=C(c3c[nH]c4ccccc34)C(=O)NC1=O)cn2CCCN(C)C", "class_label": "t"}
